We begin with a simple list: items and their reported Binding Activity on ET Receptor (R. act.) ET8 *2.
# System: ETB receptor (guinea pig kidney crude receptor membrane fraction)
# protocol: ETB Radio Receptor Assay *2
# Assay type: binding
# cond: relative activity (Example 8 given as 100), 125I-endothelin-1, 37° C., 90 minutes
Non-standard residues stand in square brackets, D forms with d. Residues, ends and D or L forms follow the SMILES beside them. *: point of attachment. NMeW = CN[C@@H](Cc1c[nH]c2ccccc12)C(=O)O; Hyp = O=C(O)[C@@H]1C[C@@H](O)CN1; d2Thi = N[C@H](Cc1cccs1)C(=O)O; dTle = CC(C)(C)[C@@H](N)C(=O)O; Orn = NCCC[C@H](N)C(=O)O; PhAc = O=C(Cc1ccccc1)*; Bn = c1ccc(C*)cc1
readoutType: Binding Activity on ET Receptor (R. act.) ET8 *2

[[record]]
compound = "CC(C)C[C@@H]1NC(=O)[C@@H](CC(C)C)NC(=O)[C@H]2CCCN2C(=O)[C@H](CC(=O)O)NC(=O)[C@@H](CC(=O)O)NC(=O)[C@@H](Cc2c[nH]c3ccccc23)NC1=O [Example 31] (cyclo(D[dP][dL]L[dW][dD]))"
datavalue = 1.0

[[record]]
compound = "CC(C)C[C@@H]1NC(=O)[C@@H](CC(C)C)NC(=O)[C@H](COCc2ccccc2)NC(=O)[C@H](Cc2c[nH]c3ccccc23)NC(=O)[C@@H](CC(=O)O)NC(=O)[C@@H](Cc2c[nH]c3ccccc23)NC1=O [Example 38] (cyclo(L[dW][dD]WS(Bn)[dL]))"
datavalue = 170

[[record]]
compound = "CC(C)C[C@@H]1NC(=O)[C@@H](CC(C)C)NC(=O)[C@H](CC(=O)O)NC(=O)[C@H](CC(=O)O)NC(=O)[C@@H](CC(=O)O)NC(=O)[C@@H](Cc2c[nH]c3ccccc23)NC1=O [Example 16] (cyclo(DD[dL]L[dW][dD]))"
datavalue = 34

[[record]]
compound = "CC(C)C[C@@H]1NC(=O)[C@@H](CC(C)C)NC(=O)[C@H](CC(=O)O)NC(=O)[C@H](CCCNC(=O)Cc2ccccc2)NC(=O)[C@@H](CC(=O)O)NC(=O)[C@@H](Cc2c[nH]c3ccccc23)NC1=O [Example 80] (cyclo(D[dL]L[dW][dD][Orn](PhAc)))"
datavalue = 380

[[record]]
compound = "CC(C)C[C@@H]1NC(=O)[C@@H](Cc2cccs2)NC(=O)[C@H](CC(=O)O)NC(=O)[C@H](Cc2c[nH]c3ccccc23)NC(=O)[C@@H](CC(=O)O)NC(=O)[C@@H](Cc2c[nH]c3ccccc23)NC1=O [Example 50] (cyclo(D[d2Thi]L[dW][dD]W))"
datavalue = 57

[[record]]
compound = "CC(C)C[C@@H]1NC(=O)[C@@H](CC(C)C)NC(=O)[C@H](CC(=O)O)NC(=O)[C@H](C(C)C)NC(=O)[C@@H](CC(=O)O)NC(=O)[C@@H](Cc2c[nH]c3ccccc23)NC1=O [Example 17] (cyclo(D[dL]L[dW][dD]V))"
datavalue = 22

[[record]]
compound = "CC(C)C[C@@H]1NC(=O)[C@@H](CC(C)C)NC(=O)[C@H](CC(=O)O)NC(=O)[C@H](Cc2c[nH]c3ccccc23)N(C)C(=O)[C@@H](CC(=O)O)NC(=O)[C@@H](Cc2c[nH]c3ccccc23)NC1=O [Example 67] (cyclo(D[dL]L[dW][dD][NMeW]))"
datavalue = 30

[[record]]
compound = "CC(C)C[C@@H]1NC(=O)[C@@H](CC(C)C)NC(=O)[C@H](CC(=O)O)NC(=O)[C@@H]2C[C@@H](O)CN2C(=O)[C@@H](CC(=O)O)NC(=O)[C@@H](Cc2c[nH]c3ccccc23)NC1=O [Example 14, cyclo[-D-Asp-Hyp-Asp-D-Leu-Leu-D-Trp-]] (cyclo(D[dL]L[dW][dD][Hyp]))"
datavalue = 120

[[record]]
compound = "CC(C)C[C@@H]1NC(=O)[C@@H](C(C)(C)C)NC(=O)[C@H](CC(=O)O)NC(=O)[C@H](Cc2c[nH]c3ccccc23)NC(=O)[C@@H](CC(=O)O)NC(=O)[C@@H](Cc2c[nH]c3ccccc23)NC1=O [Example 53, cyclo[-D-Asp-Trp-Asp-D-tLeu-Leu-D-Trp-]] (cyclo(D[dTle]L[dW][dD]W))"
datavalue = 460

[[record]]
compound = "CC(C)C[C@@H]1NC(=O)[C@@H](CC(C)C)NC(=O)[C@H](CC(=O)O)NC(=O)[C@H](Cc2c[nH]cn2)NC(=O)[C@@H](CC(=O)O)NC(=O)[C@@H](Cc2c[nH]c3ccccc23)NC1=O [Example 83] (cyclo(D[dL]L[dW][dD]H))"
datavalue = 43


All values here come from patent US5616684A.
